Biological target: TRPV1 (Rattus norvegicus, UniProt O35433)
Construct: FLAG; expressed in transfected cells
Sequence (O35433 whole entry): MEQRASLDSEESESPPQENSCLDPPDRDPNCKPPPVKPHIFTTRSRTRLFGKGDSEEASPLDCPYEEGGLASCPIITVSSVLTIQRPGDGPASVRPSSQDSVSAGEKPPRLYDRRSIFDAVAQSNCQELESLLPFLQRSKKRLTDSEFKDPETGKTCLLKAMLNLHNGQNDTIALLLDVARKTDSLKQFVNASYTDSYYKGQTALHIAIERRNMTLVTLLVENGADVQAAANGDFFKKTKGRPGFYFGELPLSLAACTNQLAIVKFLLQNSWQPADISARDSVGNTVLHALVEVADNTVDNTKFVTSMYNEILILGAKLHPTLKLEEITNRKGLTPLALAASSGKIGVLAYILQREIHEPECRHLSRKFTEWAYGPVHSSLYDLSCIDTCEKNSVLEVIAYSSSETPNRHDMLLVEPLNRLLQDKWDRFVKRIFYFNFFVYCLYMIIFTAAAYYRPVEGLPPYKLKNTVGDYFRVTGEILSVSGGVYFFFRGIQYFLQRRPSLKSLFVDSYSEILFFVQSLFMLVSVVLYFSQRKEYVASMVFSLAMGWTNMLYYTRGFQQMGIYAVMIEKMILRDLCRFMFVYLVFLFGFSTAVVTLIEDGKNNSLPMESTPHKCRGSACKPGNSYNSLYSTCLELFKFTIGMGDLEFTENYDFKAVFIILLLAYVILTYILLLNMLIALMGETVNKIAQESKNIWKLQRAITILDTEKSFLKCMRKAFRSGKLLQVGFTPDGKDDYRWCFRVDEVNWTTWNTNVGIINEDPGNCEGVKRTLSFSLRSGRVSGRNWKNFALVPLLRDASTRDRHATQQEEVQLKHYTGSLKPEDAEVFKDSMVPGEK
Test: Whole-cell patch clamp of TRPV1 currents in HEK293 cells overexpressing TRPV1 (HEK293-V1)
Type: cell-based
Conditions: dose 150 micromolar
Rate of inactivation values by entry
REPORTED_METRIC: Rate of inactivation

- CCCCCc1cc(O)c2c(c1)OC(C)(C)c1ccc(C)cc1-2: .019 dpsec^−1
- CCCCCc1cc(O)c(C/C=C(\C)CCC=C(C)C)c(O)c1: .014 dpsec^−1
- C=C(C)[C@@H]1CCC(C)=C[C@H]1c1c(O)cc(CCC)cc1O: .14 dpsec^−1
- C=C(C)[C@@H]1CCC(C)=C[C@H]1c1c(O)cc(CCCCC)cc1O: .042 dpsec^−1
